B1: OR4K15 (parent)
chain: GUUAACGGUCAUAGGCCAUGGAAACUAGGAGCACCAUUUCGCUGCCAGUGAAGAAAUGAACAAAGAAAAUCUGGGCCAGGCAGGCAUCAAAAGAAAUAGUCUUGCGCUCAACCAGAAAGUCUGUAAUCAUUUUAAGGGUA

- Variants of: B1
- Test: self-cleavage, relative activity (ratio to wild type); higher = more cleavage; in vitro, sequencing; the parent is a self-cleaving ribozyme
# label = y if self-cleavage >= 1 else n

Here's what some known entries look like.
INSERT INTO results (mutation_descriptor, answer_label) VALUES
  ('U87C A118G', 'n'),
  ('A47G A134G', 'n'),
  ('C10A A68G', 'n'),
  ('A78U A98G', 'n'),
  ('U37C G74A', 'n'),
  ('A82G A135G', 'n'),
  ('A86U A91U', 'y'),
  ('G75A A82G', 'n');

Determine whether this variant has self-cleavage no lower than 1: C42G y

Check if self-cleavage >= 1 (inclusive). Item: A24C U103C y

Is self-cleavage for A55C A78C at or above 1? n

Hi, just wondering whether A55U A64G shows self-cleavage of 1 or higher. y

Exam item: decide whether the reported self-cleavage for A5U A66G is at least 1. y

I'd appreciate it if you could say whether G48U A56G has self-cleavage at least equal to 1. y

Please indicate if the recorded self-cleavage for A117G A134G meets or exceeds 1. n
